Would you mind telling me the reported Ki of each entry?
Target: T1, DRED complex (TR2/TR4 heterodimer DNA-binding core) (Mus musculus, UniProt Q505F1;P49117 Q505F1:1-590,P49117:1-596)
T1 sequence 1: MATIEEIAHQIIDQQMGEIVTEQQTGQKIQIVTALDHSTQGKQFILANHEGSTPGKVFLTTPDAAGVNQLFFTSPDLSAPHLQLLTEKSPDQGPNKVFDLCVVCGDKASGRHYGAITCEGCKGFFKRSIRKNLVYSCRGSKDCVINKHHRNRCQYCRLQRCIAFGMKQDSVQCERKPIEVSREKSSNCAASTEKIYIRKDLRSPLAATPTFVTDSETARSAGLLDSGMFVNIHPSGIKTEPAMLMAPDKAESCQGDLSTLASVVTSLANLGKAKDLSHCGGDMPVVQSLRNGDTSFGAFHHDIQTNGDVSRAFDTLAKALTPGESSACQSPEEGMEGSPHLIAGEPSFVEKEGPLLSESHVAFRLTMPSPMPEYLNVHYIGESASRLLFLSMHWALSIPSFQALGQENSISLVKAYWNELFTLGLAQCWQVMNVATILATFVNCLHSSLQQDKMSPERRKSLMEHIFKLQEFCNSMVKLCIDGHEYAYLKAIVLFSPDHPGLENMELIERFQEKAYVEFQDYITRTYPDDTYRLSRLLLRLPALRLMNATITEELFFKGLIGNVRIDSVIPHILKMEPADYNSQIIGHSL
T1 sequence 2: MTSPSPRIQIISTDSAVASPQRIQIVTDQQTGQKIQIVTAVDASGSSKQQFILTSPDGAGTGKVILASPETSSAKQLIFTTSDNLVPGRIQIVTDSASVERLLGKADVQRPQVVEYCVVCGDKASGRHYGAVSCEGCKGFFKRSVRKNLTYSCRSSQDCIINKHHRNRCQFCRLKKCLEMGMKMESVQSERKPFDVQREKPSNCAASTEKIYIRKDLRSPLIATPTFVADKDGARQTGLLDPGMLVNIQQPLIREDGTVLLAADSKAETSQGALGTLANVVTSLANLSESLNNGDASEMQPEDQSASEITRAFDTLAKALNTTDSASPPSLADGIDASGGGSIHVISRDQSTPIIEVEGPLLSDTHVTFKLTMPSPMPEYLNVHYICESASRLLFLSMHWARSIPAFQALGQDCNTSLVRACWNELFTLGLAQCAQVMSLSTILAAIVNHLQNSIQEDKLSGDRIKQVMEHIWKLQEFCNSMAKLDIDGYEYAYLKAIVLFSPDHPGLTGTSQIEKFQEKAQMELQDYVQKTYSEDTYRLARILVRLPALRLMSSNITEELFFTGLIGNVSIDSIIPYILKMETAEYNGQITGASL
Assay: competition; EMSA competition vs 1.1 nM 32P epsilon distal DR probe
Settings: protein: extract; tags: native, MEL mouse erythroleukemia cell nuclear extract; blunt ended
Give the number; nM is assumed, so skip it.

The measured Ki associated with epsilon-y distal DR (dsDNA) DNA 1: CCATGAGGACCACGGGTCAGGCTGA DNA 2: TCAGCCTGACCCGTGGTCCTCATGG reads 4.1

The measured Ki associated with epsilon proximal DR (dsDNA) DNA 1: CAGCCTTGACCAATGACTTTTA DNA 2: TAAAAGTCATTGGTCAAGGCTG reads 2.8

The measured Ki associated with gamma DR (dsDNA) DNA 1: GCCTTGCCTTGACCAATAGCCTTGACAA DNA 2: TTGTCAAGGCTATTGGTCAAGGCAAGGC reads 13

The measured Ki associated with beta-h1 DR (dsDNA) DNA 1: CCCAGACTCTCTTGACCAATAGCCTCAGAGTCCT DNA 2: AGGACTCTGAGGCTATTGGTCAAGAGAGTCTGGG reads 18

Values were extracted from patent US20080008651A1.
